Each entry below lists one item and its recorded growth value.
Tested on: SF-539 CNS
TEST NAME: NCI-60 one-dose screen, 48 h (100 = growth as untreated, 0 = no growth, -100 = all killed)
REPORTED CONDITIONS: 10 µM unless noted
Compounds without any hit were thinned out: in the full panel of roughly 83,000, 20% have a hit.

>  <COMPOUND>
CC(=O)c1ccc(NC(=O)CSc2nnc(-c3cc(-c4ccc(Cl)cc4)nc4ccccc34)o2)cc1

>  <UNIT DESCRIPTOR>
%

>  <growth>
74.2

$$$$
>  <COMPOUND>
O=C(O)c1cn(C2CC2)c2cc(N3CCN(Cc4nnc(Nc5ccccc5)o4)CC3)c(F)cc2c1=O

>  <UNIT DESCRIPTOR>
%

>  <growth>
99.4

$$$$
>  <COMPOUND>
c1ccc2c3c([nH]c2c1)C(c1ccc(C2NCCc4c2[nH]c2ccccc42)cc1)NCC3 (stereo unspecified)

>  <UNIT DESCRIPTOR>
%

>  <growth>
-15.5

$$$$
>  <COMPOUND>
CCOCc1nc2ccccc2c(=O)[nH]1

>  <UNIT DESCRIPTOR>
%

>  <growth>
102

$$$$
>  <COMPOUND>
C=C(C)[C@@H]1CC[C@]2(C(N)=O)CC[C@]3(C)[C@H](CC[C@@H]4[C@@]5(C)CCCNC(C)(C)[C@@H]5CC[C@]43C)[C@@H]12

>  <UNIT DESCRIPTOR>
%

>  <growth>
65.4

$$$$
>  <COMPOUND>
Cc1nn(-c2ccc(-c3ccc(OC(F)(F)F)cc3)cc2)c2nc(-c3ccccc3)nc(N)c12

>  <UNIT DESCRIPTOR>
%

>  <growth>
100

$$$$
>  <COMPOUND>
CN(C)CCCn1c2c(c3cc(-c4cccc(S(N)(=O)=O)c4)ccc3c1=O)C(=O)c1ccccc1-2

>  <UNIT DESCRIPTOR>
%

>  <growth>
80.9

$$$$
>  <COMPOUND>
C#CCOC(=O)[C@]1(C)CCC[C@]2(C)[C@H]3C[C@H]4C(C(C)C)=C[C@]3(CC[C@H]21)[C@@H]1C(=O)CCC(=O)[C@@H]14

>  <UNIT DESCRIPTOR>
%

>  <growth>
84

$$$$
>  <COMPOUND>
CC(C)(C)CC(C)(C)Cc1ccc(OCCOCC[N+](C)(C)Cc2ccccc2)cc1

>  <UNIT DESCRIPTOR>
%

>  <growth>
30.9

$$$$
>  <COMPOUND>
C/C(=N\NC(=O)c1ccncc1)c1ccc(N)cc1

>  <UNIT DESCRIPTOR>
%

>  <growth>
98.5

$$$$
>  <COMPOUND>
C#C[C@@]1(O)[C@@H](CO)O[C@@H](n2cnc3c(-c4ccccc4)ncnc32)[C@@H]1O

>  <UNIT DESCRIPTOR>
%

>  <growth>
108

$$$$
>  <COMPOUND>
C[C@]12CC[C@@H]3c4ccc(O)cc4CC[C@H]3[C@@H]1C[C@H](O)C2

>  <UNIT DESCRIPTOR>
%

>  <growth>
73.5

$$$$
>  <COMPOUND>
NC(=O)CN1C(=O)c2ccccc2C1=O

>  <UNIT DESCRIPTOR>
%

>  <growth>
106

$$$$
>  <COMPOUND>
CN(CCC#N)C(=O)Nc1ccccc1

>  <UNIT DESCRIPTOR>
%

>  <growth>
105

$$$$
>  <COMPOUND>
c1ccc(Sc2ncccn2)nc1

>  <UNIT DESCRIPTOR>
%

>  <growth>
96

$$$$
>  <COMPOUND>
COc1cc2c(cc1OCCCOc1cc3c(cc1OC)C(=O)N1CC(F)(F)C[C@H]1C=N3)N=C[C@@H]1CC(F)(F)CN1C2=O

>  <UNIT DESCRIPTOR>
%

>  <growth>
-27.9

$$$$
>  <COMPOUND>
O=C(NCc1ccccc1)c1ccc2c(c1)NC(=O)[C@@H]1CCCN21

>  <UNIT DESCRIPTOR>
%

>  <growth>
105

$$$$
>  <COMPOUND>
Cc1nnc(/N=C2\NC(=O)/C(=C/c3ccc(N(C)C)cc3)S2)s1

>  <UNIT DESCRIPTOR>
%

>  <growth>
83.7

$$$$
>  <COMPOUND>
O=C(/C(=C/c1ccc([N+](=O)[O-])cc1)SCc1ccc(F)cc1)c1ccc(Cl)cc1

>  <UNIT DESCRIPTOR>
%

>  <growth>
94.6

$$$$
>  <COMPOUND>
S=C(Nc1ccc(Cl)cc1)c1ccccn1

>  <UNIT DESCRIPTOR>
%

>  <growth>
102

$$$$
>  <COMPOUND>
CCCS(=O)(=O)Nc1ccc(F)c(C(=O)c2c[nH]c3ncc(-c4ccc(OCCCC5CCCCN5)nc4)cc23)c1F (stereo unspecified)

>  <UNIT DESCRIPTOR>
%

>  <growth>
28.4

$$$$
>  <COMPOUND>
Nc1c(C(=O)Nc2cccc3ccccc23)sc2nc3c(cc12)CCCCC3

>  <UNIT DESCRIPTOR>
%

>  <growth>
-1.19

$$$$
>  <COMPOUND>
O=C(NC[C@H](O)CN1CCc2ccccc2C1)c1cc(NC2COC2)ncn1

>  <UNIT DESCRIPTOR>
%

>  <growth>
97.4

$$$$
>  <COMPOUND>
O=C(Nc1ccc2ncnc(Nc3ccc(F)c(Cl)c3)c2c1)c1ccccc1

>  <UNIT DESCRIPTOR>
%

>  <growth>
78.6

$$$$
>  <COMPOUND>
COc1cc(C2=NN(c3ccccc3)C(c3cccc(Nc4ccnc5cc(C(F)(F)F)ccc45)c3)C2)cc(OC)c1OC (stereo unspecified)

>  <UNIT DESCRIPTOR>
%

>  <growth>
100

$$$$
>  <COMPOUND>
CCOC(=O)c1cnn(-c2nc(-c3ccc(F)cc3)c(C#N)c(N3CCOCC3)n2)c1N

>  <UNIT DESCRIPTOR>
%

>  <growth>
97.2

$$$$
>  <COMPOUND>
NC(=O)c1ccc(C2C3=C(CCCC3=O)OC3=C2C(=O)c2ccccc2C3=O)cc1 (stereo unspecified)

>  <UNIT DESCRIPTOR>
%

>  <growth>
0.536

$$$$
>  <COMPOUND>
C=C(C)[C@@H]1CC[C@]2(C(=O)OCCOCCOCC[P+](c3ccccc3)(c3ccccc3)c3ccccc3)CC[C@]3(C)[C@H](CC[C@@H]4[C@@]5(C)CC[C@H](C)C(C)(C)[C@@H]5CC[C@]43C)[C@@H]12

>  <UNIT DESCRIPTOR>
%

>  <growth>
-90.3

$$$$
>  <COMPOUND>
CC(/C=C/c1ccccc1)=N/NC(=O)c1ccncc1

>  <UNIT DESCRIPTOR>
%

>  <growth>
105

$$$$
>  <COMPOUND>
COc1cc(C(=O)N2CCN(c3ccccc3OC)CC2)c(NC(=O)c2cnccn2)cc1OCc1ccccc1

>  <UNIT DESCRIPTOR>
%

>  <growth>
88.9

$$$$
>  <COMPOUND>
Cc1ccc(C2CC(c3ccc(Nc4nc(NCCO)nc(NCCO)n4)cc3)=NN2c2ccc(Cl)cc2)cc1 (stereo unspecified)

>  <UNIT DESCRIPTOR>
%

>  <growth>
39

$$$$
>  <COMPOUND>
CCN1CCC[C@H]1c1cc(O)c2c(c1OC)C[C@H]1C[C@H]3[C@H](N)C(=O)C(C(N)=O)=C(O)[C@@]3(O)C(=O)C1=C2O

>  <UNIT DESCRIPTOR>
%

>  <growth>
-21

$$$$
>  <COMPOUND>
C=C1C(=O)O[C@H]2[C@H]1CC/C(COC(=O)CCCCCCCCC(=O)OC/C1=C/CC[C@@]3(C)O[C@H]3[C@H]3OC(=O)C(=C)[C@@H]3CC1)=C\CC[C@@]1(C)O[C@@H]21

>  <UNIT DESCRIPTOR>
%

>  <growth>
-36.6

$$$$
>  <COMPOUND>
CC1=C/C(=N\N=C2/C=C(C)CC(C)(C)C2)CC(C)(C)C1

>  <UNIT DESCRIPTOR>
%

>  <growth>
105

$$$$
>  <COMPOUND>
C/C(=C\c1cnc(C)s1)[C@@H]1C[C@@H]2O[C@@H]2CCC[C@H](C)[C@H](O)[C@@H](C)C(=O)C(C)(C)[C@@H](O)CC(=O)O1

>  <UNIT DESCRIPTOR>
%

>  <growth>
7.63

$$$$
>  <COMPOUND>
Nn1c(SCC(=O)Nc2ccc(Cl)cc2)nnc1-c1cc(F)c(Cl)cc1Cl

>  <UNIT DESCRIPTOR>
%

>  <growth>
92.9

$$$$

---

Tested on: U251 CNS
TEST NAME: NCI-60 one-dose screen, 48 h (100 = growth as untreated, 0 = no growth, -100 = all killed)
REPORTED CONDITIONS: 10 µM unless noted
About 83,000 compounds went through this panel and 20% of them were active in at least one assay; those are over-represented in the sample as a whole. Activity calls are given as the source filed them. How the source made its calls: active means growth percent below 10; inactive means the rest.
Each entry below lists one item and its recorded growth value.

>  <COMPOUND>
CC(=O)c1ccc(NC(=O)CSc2nnc(-c3cc(-c4ccc(Cl)cc4)nc4ccccc34)o2)cc1

>  <MEASUREMENT TARGET>
U251 CNS

>  <growth>
28.6% (inactive)

$$$$
>  <COMPOUND>
O=C(Nc1cc(=O)[nH]c(=O)[nH]1)C(Cl)Cl

>  <MEASUREMENT TARGET>
U251 CNS

>  <growth>
99.5% (inactive)

$$$$
>  <COMPOUND>
O=C(NC[C@H](O)CN1CCc2ccccc2C1)c1cc(NC2COC2)ncn1

>  <MEASUREMENT TARGET>
U251 CNS

>  <growth>
102% (inactive)

$$$$
>  <COMPOUND>
CCN1CCN(c2ccc(NC(=O)Nc3nc4ccc(-c5ccccc5OC)cc4s3)cc2)CC1

>  <MEASUREMENT TARGET>
U251 CNS

>  <growth>
-87% (active)

$$$$
>  <COMPOUND>
O=C1C(=O)c2c(nc3ccc(C(F)(F)F)cn23)-c2ccccc21

>  <MEASUREMENT TARGET>
U251 CNS

>  <growth>
-96% (active)

$$$$
>  <COMPOUND>
C=C1C(=O)O[C@H]2[C@H]1CC/C(COC(=O)CCCCCCC(=O)OC/C1=C/CC[C@@]3(C)O[C@H]3[C@H]3OC(=O)C(=C)[C@@H]3CC1)=C\CC[C@@]1(C)O[C@@H]21

>  <MEASUREMENT TARGET>
U251 CNS

>  <growth>
44.1% (inactive)

$$$$
>  <COMPOUND>
c1ccc2nc(N3CCOCC3)c(N3CCCCC3)nc2c1

>  <MEASUREMENT TARGET>
U251 CNS

>  <growth>
96.9% (inactive)

$$$$
>  <COMPOUND>
COc1ccc2[nH]c(=O)c(/C=C/C(=O)c3ccccc3OC)cc2c1

>  <MEASUREMENT TARGET>
U251 CNS

>  <growth>
5.14% (active)

$$$$
>  <COMPOUND>
CCCCc1n(Cc2ccc3ccccc3c2)c2ccccc2[n+]1Cc1ccc2ccccc2c1

>  <MEASUREMENT TARGET>
U251 CNS

>  <growth>
-87.2% (active)

$$$$
>  <COMPOUND>
COc1ccc(-n2cc(-c3ccc(Cl)c(Cl)c3)[nH]c2=O)cc1OC

>  <MEASUREMENT TARGET>
U251 CNS

>  <growth>
91.7% (inactive)

$$$$
>  <COMPOUND>
COC(=O)c1ccc2c(c1)n(Cc1ccc3ccccc3c1)c[n+]2Cc1ccc2ccccc2c1

>  <MEASUREMENT TARGET>
U251 CNS

>  <growth>
32.9% (inactive)

$$$$
>  <COMPOUND>
COc1ccc(-c2cc(C(=O)N3N=C(c4ccc(N)cc4)CC3c3ccc(OC)cc3)c3cc(OC)ccc3n2)cc1 (stereo not drawn)

>  <MEASUREMENT TARGET>
U251 CNS

>  <growth>
48.7% (inactive)

$$$$
>  <COMPOUND>
Nc1ccc(C2=NN(C(=O)c3cc(-c4ccc(Cl)cc4)nc4ccccc34)C(c3ccccc3)C2)cc1 (stereo not drawn)

>  <MEASUREMENT TARGET>
U251 CNS

>  <growth>
40.1% (inactive)

$$$$
>  <COMPOUND>
CCCn1cc(/C=N\N=C2\C(=O)Nc3ccc(C)cc32)c2ccccc21

>  <MEASUREMENT TARGET>
U251 CNS

>  <growth>
40% (inactive)

$$$$
>  <COMPOUND>
CC1=C(CCCOC(=O)NCCCl)C2=C(C)C3(CC3)[C@@](C)(O)C(=O)C2=C1

>  <MEASUREMENT TARGET>
U251 CNS

>  <growth>
54.2% (inactive)

$$$$
>  <COMPOUND>
O=[N+]([O-])c1ccc(N=Nc2c(O)c(N=Nc3cc([N+](=O)[O-])cc([N+](=O)[O-])c3O)cc(N=Nc3cc(S(=O)(=O)O)cc4cc(S(=O)(=O)O)cc(O)c34)c2O)cc1

>  <MEASUREMENT TARGET>
U251 CNS

>  <growth>
105% (inactive)

$$$$
>  <COMPOUND>
N#Cc1c(-c2ccc(F)cc2)nc(N=Nc2c(O)[nH]c3ccccc23)nc1N1CCOCC1

>  <MEASUREMENT TARGET>
U251 CNS

>  <growth>
27.4% (inactive)

$$$$
>  <COMPOUND>
NS(=O)(=O)c1ccc(N2Cc3cc(Cl)ccc3OC3=C2C(=O)N(CC2CCCCC2)C3=O)cc1

>  <MEASUREMENT TARGET>
U251 CNS

>  <growth>
-91.3% (active)

$$$$
